In this section, each of the compounds is paired with its reported composite z-score.
target-or-system: Calmodulin-1 (Homo sapiens) (UniProt P0DP23)
measurement-protocol: CALM1 binders on microarrays, EGTA buffer, profiling panel, biochemical, small-molecule microarray, Cy5-labelled CALM1 (AID 1111);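 further: labelled calmodulin applied in Tris saline Tween buffer holding calcium plus EGTA and DTT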
measurement-conditions: Cy5-CALM1 binding fluorescence, higher = more signal
Give only the figure.

// known answers, use as guide
smiles-repr: CCc1cccc(NC(=O)O[C@H]2[C@H](OC(=O)Nc3ccccc3)[C@@H](OC(=O)Nc3ccccc3)[C@@H](OC)O[C@@H]2CO)c1
target-or-system: Calmodulin-1 (Homo sapiens) (UniProt P0DP23)
measurement-type: composite z-score
endpoint-value: 1.19

smiles-repr: CCN1C(C)=C(C(=O)OC)[C@@H](c2ccccc2)N2C(=O)[C@@]3(C(=O)OC)O[C@@]12[C@@H]1C(=O)N(C)C(=O)[C@@H]13
target-or-system: Calmodulin-1 (Homo sapiens) (UniProt P0DP23)
measurement-type: composite z-score
endpoint-value: 0.439

Query block: Query: composite z-score; subject: COCCOC(=O)N1C(=O)[C@@]2(c3cc(C#CCC(C(=O)OC)C(=O)OC)ccc31)[C@H](c1ccccc1OCCO)N1[C@H](c3ccccc3)[C@H](c3ccccc3)OC(=O)[C@H]1[C@@H]2C(=O)N1CCCCCCC1
Result block: 2.17

Each recorded value in this set is attributed to PubChem BioAssay.
